# tgt: Thromboxane-A synthase (Homo sapiens)
# Sequence (P24557 whole entry): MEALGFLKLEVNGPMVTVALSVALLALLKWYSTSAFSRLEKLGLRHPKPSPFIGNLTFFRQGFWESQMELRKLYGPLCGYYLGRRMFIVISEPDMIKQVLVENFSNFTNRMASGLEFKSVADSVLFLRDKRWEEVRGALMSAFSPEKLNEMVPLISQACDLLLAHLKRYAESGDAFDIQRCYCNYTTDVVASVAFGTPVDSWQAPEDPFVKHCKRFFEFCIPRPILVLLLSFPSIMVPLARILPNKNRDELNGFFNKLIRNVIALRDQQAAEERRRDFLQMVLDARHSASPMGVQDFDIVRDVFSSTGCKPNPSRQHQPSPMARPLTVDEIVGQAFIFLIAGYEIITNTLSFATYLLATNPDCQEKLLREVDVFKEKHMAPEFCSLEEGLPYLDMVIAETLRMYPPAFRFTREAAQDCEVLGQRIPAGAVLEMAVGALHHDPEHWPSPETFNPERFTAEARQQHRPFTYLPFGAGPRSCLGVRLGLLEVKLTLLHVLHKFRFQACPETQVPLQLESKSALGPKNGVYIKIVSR
# testDescription: biochemical
# Type: tissue-based, Platelet
# conditionsUsed: platelet

molecule | tgt | IC50
CCc1ccc(CCOc2ccc(CC3SC(=O)NC3=O)cc2)nc1 (configuration not stated) | Thromboxane-A synthase (Homo sapiens) | Not Active
O=C(O)CCCc1cccs1 | Thromboxane-A synthase (Homo sapiens) | Not Active
CN1C(=O)CN=C(c2ccccc2)c2cc([N+](=O)[O-])ccc21 | Thromboxane-A synthase (Homo sapiens) | Not Active
C[N+](C)(C)CCOC(=O)CCC(=O)OCC[N+](C)(C)C.[Cl-].[Cl-] [SUCCINYLCHOLINE CHLORIDE] | Thromboxane-A synthase (Homo sapiens) | Not Active
CCOC(=O)c1ncn2c1CN(C)C(=O)c1cc(F)ccc1-2 | Thromboxane-A synthase (Homo sapiens) | Not Active
CCCCC(=O)N(Cc1ccc(-c2ccccc2-c2nnn[nH]2)cc1)[C@H](C(=O)O)C(C)C | Thromboxane-A synthase (Homo sapiens) | Not Active
CC(C)(C(=O)O)c1ccc(C(O)CCCN2CCC(C(O)(c3ccccc3)c3ccccc3)CC2)cc1 (configuration not stated) [FEXOFENADINE] | Thromboxane-A synthase (Homo sapiens) | Not Active
CCN(CC)CCCC(C)Nc1c2ccc(Cl)cc2nc2ccc(OC)cc12 (configuration not stated) | Thromboxane-A synthase (Homo sapiens) | Not Active
Oc1ccc2c3c1O[C@H]1[C@@H](O)CC[C@@]4(O)[C@@H](C2)N(CC2CCC2)CC[C@]314 | Thromboxane-A synthase (Homo sapiens) | Not Active
O=C(O)c1ccccc1O | Thromboxane-A synthase (Homo sapiens) | Not Active
O=C(c1ccccc1F)N1CCC(Cc2ccccc2)CC1 | Thromboxane-A synthase (Homo sapiens) | Not Active
O=C(O)CCNC(=O)c1ccc(/N=N/c2ccc(O)c(C(=O)O)c2)cc1 [BALSALAZIDE] | Thromboxane-A synthase (Homo sapiens) | Not Active
CN(C)C(=O)Oc1cccc([N+](C)(C)C)c1.[Br-] [NEOSTIGMINE BROMIDE] | Thromboxane-A synthase (Homo sapiens) | Not Active
CC1CCC(NC(=O)N(CCCl)N=O)CC1 (configuration not stated) | Thromboxane-A synthase (Homo sapiens) | Not Active
NCCCNCCSP(=O)(O)O | Thromboxane-A synthase (Homo sapiens) | Not Active
C[C@@](Cc1ccc(O)c(O)c1)(NN)C(=O)O.O | Thromboxane-A synthase (Homo sapiens) | Not Active
Cc1ccc(C(=O)c2ccc(CC(=O)O)n2C)cc1 | Thromboxane-A synthase (Homo sapiens) | Not Active

###

# testDescription: DRUGMATRIX: Sigma2 radioligand binding (ligand: [3H] Ifenprodil)
# Format: cell membranes, Rattus norvegicus, Wistar, Brain, Membrane
# conditionsUsed: Not Active = under 50% inhibition at 10 µM
testReadout: IC50

substance | endpointResult
TRANSPLATIN | Not Active
COLISTIN | Not Active
ZIRCONIUM(IV) CHLORIDE | Not Active
COBALTOUS CHLORIDE | Not Active

###

# tgt: UniProt P04035
# Sequence (P04035 whole entry): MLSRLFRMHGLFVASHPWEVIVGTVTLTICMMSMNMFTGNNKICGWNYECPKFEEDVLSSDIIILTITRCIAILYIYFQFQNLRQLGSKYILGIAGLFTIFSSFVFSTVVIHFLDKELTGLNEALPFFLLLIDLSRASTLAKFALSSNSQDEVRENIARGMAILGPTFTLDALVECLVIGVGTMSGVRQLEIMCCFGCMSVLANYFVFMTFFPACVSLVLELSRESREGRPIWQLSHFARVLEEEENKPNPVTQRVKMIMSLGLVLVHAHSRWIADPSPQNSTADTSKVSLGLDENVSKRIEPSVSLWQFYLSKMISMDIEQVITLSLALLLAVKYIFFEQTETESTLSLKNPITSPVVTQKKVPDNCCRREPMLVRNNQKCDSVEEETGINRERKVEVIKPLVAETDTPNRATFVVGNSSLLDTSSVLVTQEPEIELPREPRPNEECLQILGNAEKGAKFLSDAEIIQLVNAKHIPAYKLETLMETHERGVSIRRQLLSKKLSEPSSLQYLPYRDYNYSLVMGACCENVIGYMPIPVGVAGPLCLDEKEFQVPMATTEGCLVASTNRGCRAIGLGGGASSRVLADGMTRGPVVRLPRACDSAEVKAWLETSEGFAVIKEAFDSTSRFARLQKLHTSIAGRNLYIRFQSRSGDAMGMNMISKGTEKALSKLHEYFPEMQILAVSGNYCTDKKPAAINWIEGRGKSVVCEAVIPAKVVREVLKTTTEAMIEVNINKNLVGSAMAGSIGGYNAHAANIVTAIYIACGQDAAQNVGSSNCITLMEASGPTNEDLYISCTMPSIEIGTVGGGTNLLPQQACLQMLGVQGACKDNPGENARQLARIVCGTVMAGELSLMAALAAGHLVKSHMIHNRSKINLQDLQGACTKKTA
# Design: species or system Escherichia coli
testReadout: IC50

molecule | testReadout | endpointResult
NC(=O)c1cccc(N)c1 [3-AMINOBENZAMIDE] | IC50 | Not Active
NC(=O)c1cccnc1 [NIACINAMIDE] | IC50 | Not Active
CN1CCN(c2c(F)cc3c(=O)c(C(=O)O)cn(CCF)c3c2F)CC1 | IC50 | Not Active
CCN(C(C)=O)c1cccc(-c2ccnc3c(C#N)cnn23)c1 | IC50 | Not Active
CCN(CC)CCCC(C)Nc1c2ccc(Cl)cc2nc2ccc(OC)cc12 (stereo not given) | IC50 | Not Active
COc1ccccc1N | IC50 | Not Active
CN1CCC(=C2c3ccccc3CC(=O)c3sccc32)CC1 | IC50 | Not Active
CN1C[C@@H]2C[C@H]1CN2c1cc2c(cc1F)c(=O)c(C(=O)O)cn2C1CC1 | IC50 | Not Active
C[C@H]1COc2c(N3CCN(C)CC3)c(F)cc3c(=O)c(C(=O)O)cn1c23.C[C@H]1COc2c(N3CCN(C)CC3)c(F)cc3c(=O)c(C(=O)O)cn1c23.O | IC50 | Not Active
CCCNC(C)C(=O)Nc1ccccc1C (stereo not given) | IC50 | Not Active
CN1CCN(C2=Nc3cc(Cl)ccc3Nc3ccccc32)CC1 | IC50 | Not Active
O=C(O)c1cc(-c2ccc(F)cc2F)ccc1O | IC50 | Not Active
CO/N=C(\C(=O)N[C@@H]1C(=O)N2C(C(=O)O)=C(COC(C)=O)CS[C@H]12)c1csc(N)n1 | IC50 | Not Active
CC(C)C[C@H]1C(=O)N2CCC[C@H]2[C@]2(O)O[C@](NC(=O)[C@@H]3C=C4c5cccc6[nH]cc(c56)C[C@H]4N(C)C3)(C(C)C)C(=O)N12 | IC50 | Not Active
C#C[C@]1(O)CC[C@H]2[C@@H]3CCC4=CC(=O)CC[C@]4(C)[C@H]3CC[C@@]21C | IC50 | Not Active
CC(=O)OCC(=O)[C@@]12OC(C)(C)O[C@@H]1C[C@H]1[C@@H]3C[C@H](F)C4=CC(=O)C=C[C@]4(C)[C@@]3(F)[C@@H](O)C[C@@]12C [FLUOCINONIDE] | IC50 | Not Active
CC[C@H]1[C@@H]2C[C@H]3[C@@H]4N(C)c5ccccc5[C@]45C[C@@H]([C@@H]2[C@H]5O)N3[C@@H]1O | IC50 | Not Active
CC1=NN(c2ccccc2)C(=O)C1 | IC50 | Not Active
CC(C)(C(=O)O)c1ccc(C(O)CCCN2CCC(C(O)(c3ccccc3)c3ccccc3)CC2)cc1 (stereo not given) [FEXOFENADINE] | IC50 | Not Active
CN1CCN(CCCN2c3ccccc3Sc3ccc(C(F)(F)F)cc32)CC1 | IC50 | Not Active
Cc1ccc(C)c(OCCCC(C)(C)C(=O)O)c1 | IC50 | Not Active
O=c1c(-c2ccc(O)cc2)coc2cc(O)cc(O)c12 | IC50 | Not Active
CCc1ccc(CCOc2ccc(CC3SC(=O)NC3=O)cc2)nc1 (stereo not given) | IC50 | Not Active
CN1[C@@H]2CC[C@H]1C[C@@H](OC(c1ccccc1)c1ccccc1)C2 | IC50 | Not Active
CN1C(=O)CN=C(c2ccccc2)c2cc([N+](=O)[O-])ccc21 | IC50 | Not Active
C[N+](C)(C)CCOC(=O)CCC(=O)OCC[N+](C)(C)C.[Cl-].[Cl-] [SUCCINYLCHOLINE CHLORIDE] | IC50 | Not Active
CC(=O)OC[C@H]1O[C@@H](n2ncc(=O)[nH]c2=O)[C@H](OC(C)=O)[C@@H]1OC(C)=O | IC50 | Not Active
CC(C)NCC(O)c1ccccc1Cl (stereo not given) | IC50 | Not Active
CN(C)C(=N)NC(=N)N | IC50 | Not Active
CN1CCCC(CN2c3ccccc3Sc3ccccc32)C1 (stereo not given) | IC50 | Not Active
O=C(O)CC(O)(CC(=O)O)C(=O)O | IC50 | Not Active
COc1ccnc(C[S+]([O-])c2nc3ccc(OC(F)F)cc3[nH]2)c1OC (stereo not given) | IC50 | Not Active
CCCCC1=NC2(CCCC2)C(=O)N1Cc1ccc(-c2ccccc2-c2nnn[nH]2)cc1 | IC50 | Not Active
CC(O)(P(=O)(O)O)P(=O)(O)O | IC50 | Not Active
C[C@H]1[C@H](NC(=O)/C(=N\OC(C)(C)C(=O)O)c2csc(N)n2)C(=O)N1S(=O)(=O)O | IC50 | Not Active
